Listing of recorded pIC50 by entry.
# Test system: SK-MEL3
# method: Anticancer activity against human SK-MEL3 cells assessed as reduction in cell viability incubated for 24 hrs by MTT assay
# Type: functional, cell-based
# study_conditions: SK-MEL3, 24 h
Quick note: pIC50 means taking -log10 of the concentration in moles per liter.

Solved entries (count: 3):
compound	pIC50
C[C@H]1[C@H](OC(=O)CCC(=O)Oc2cc3ccc(=O)oc3cc2O)O[C@@H]2C[C@]3(C)CC[C@H]4[C@H](C)CC[C@@H]1[C@@]24OO3	5.72
C[C@H]1[C@H](OC(=O)CCC(=O)Oc2ccc3ccc(=O)oc3c2)O[C@@H]2C[C@]3(C)CC[C@H]4[C@H](C)CC[C@@H]1[C@@]24OO3	7.30
COc1cc2ccc(=O)oc2cc1O	5.82

Consider now this further compound.
**Q:** Quick one: pIC50 for O=c1ccc2cc(O)ccc2o1 [6-HYDROXYCOUMARIN] ?
**A:** 5.73
